Listing of entries alongside the reported composite z-score.
SUBJECT_OF_TEST: Torsin-1A-interacting protein 1 (Homo sapiens)
ASSAY_EXPLANATION: LAP1 binders from COS7 cell lysate, primary screen, small-molecule microarray, 635/667 nm fluorescence (AID 1116)
PROTOCOL_CONDITIONS: COS7-hLAP1 lysate binding, 635 nm fluorescence, higher = more signal
Returns: the value as a bare number; no unit string appended.

Use these answered entries as a reference point.
C=C(COC)/C(=C/C[C@@H](OC(=O)c1ccncc1)c1ccccc1OCCO)c1cc(C(=O)OC)ccc1OC : 0.332
COC(=O)[C@@]1(Cc2ccc(OC)cc2)[C@H]2c3cc(C(=O)N4CCCC4)n(Cc4cc(C)n(C)n4)c3C[C@H]2CN1C(=O)c1ccccc1 : 1.21
CC(C)C[C@@H]1NC(=O)[C@@H]2C[C@H](C(=O)NCCCCCC[N+](C)(C)C)[C@H](c3cccc(OCCO)c3)N2C1=O : 0.369

Consider the additional molecule presented here.
Indicate the recorded composite z-score value for this molecule: C[C@]1(C(=O)O)c2ccccc2C(=O)N(Cc2ccc(OC(F)(F)F)cc2)[C@H]1c1ccc(CO)cc1
0.703

----------
composite z-score values, listed per item
ASSAY_EXPLANATION: binders of probe aFST on microarray, primary screen, stem cell growth factor project, biochemical, small-molecule microarray, fluorescence 635/667 (AID 1086);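 also: score merges 667 nm fluorescence with signal-to-noise of each printed compound spot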
PROTOCOL_CONDITIONS: higher = more signal
Just the number, please.

Reference set (3 entries):
O=C1C2C=CC(C(O)c3cc(C(F)(F)F)cc(C(F)(F)F)c3)N(Nc3ccccc3F)C2C(=O)N1c1ccccc1 (centres undefined) : 0.967
C=C(C)C1CCC(C(O)C2C=CC3C(=O)N(C)C(=O)C3N2Nc2cc(OC)c(OC)c(OC)c2)CC1 (centres undefined) : 1.07
O=C1C[C@@](C(=O)NCC(F)(F)F)(c2ccc([N+](=O)[O-])cc2)[C@@H](c2ccc(CO)cc2)N1CC12CC3CC(CC(C3)C1)C2 : 0.724

Specify composite z-score for C=CCC(OC(C)=O)[C@@H]1[C@@H](N(Cc2cccc3ccccc23)C(=O)c2ccc(-c3ccccc3)cc2)c2cc(OCCCO)ccc2N1C(=O)c1ccc(-c2ccccc2)cc1 (some centres undefined) and stop.
0.392

----------
ASSAY_EXPLANATION: inhibitors of hydroxyurea-induced Chk1 phosphorylation, primary screen, imaging, HeLa, phospho-Chk1 antibody, percent positive cells (AID 1186)
PROTOCOL_CONDITIONS: hydroxyurea-induced phospho-Chk1 immunofluorescence imaging, higher = more signal
MEASURE_NAME: z-score
Provide a numeric answer; units are not to be included.

COc1ccc(C(=O)Nc2cccc(CN3C(=O)[C@@]4(O[C@@H](CC(=O)N(CCO)Cc5ccccc5)[C@H]([Si](C)(C)c5ccc(OC)cc5)[C@H]4C)c4ccccc43)c2)cc1 : -1.43
COC(=O)[C@@]1(Cc2ccccc2CN=[N+]=[N-])N=C(c2ccc(OCCCO)cc2)O[C@H]1c1ccccc1CN=[N+]=[N-] : -0.598
COCC(=C=CC[C@H](O)c1cccc(OCCO)c1)C[C@H](O)COCc1ccccc1 : -0.0978

Now look at this entry.
For the compound C=C(CCCC)C(=O)CC[C@@H](OC(=O)c1cccnc1)c1ccc(OCCO)cc1 , give its measured z-score value.
1.27
